Ki, human Adenosine A2b receptor (Homo sapiens (Human), UniProt P29275): measured values

| compound | output unit | Ki |
| --- | --- | --- |
| Cc1ncnc2ccc(-c3sc(NC(=O)N4CCN(CCO)CC4)nc3-c3cccc(C#N)c3)cc12 | nM | 3.1 |
| Cc1ncnc2ccc(-c3sc(NC(=O)N4CCN(C5COC5)CC4)nc3-c3cccc(C#N)c3)cc12 | nM | 3.3 |
| Cc1ncnc2ccc(-c3sc(NC(=O)N4CCN(C5CCN(C)CC5)CC4)nc3-c3cccc(C#N)c3)cc12 | nM | 4.8 |
| Cc1ncnc2ccc(-c3sc(NC(=O)N4CCCNCC4)nc3-c3cccc(C#N)c3)cc12 | nM | 2.2 |
| Cc1ncnc2ccc(-c3sc(NC(=O)N4CCC(N5CCN(C)CC5)CC4)nc3-c3cccc(C#N)c3)cc12 | nM | 6.5 |
| Cc1cc(-c2sc(NC(=O)N3CCC(C)(C#N)CC3)nc2-c2cccc(C#N)c2)c2[nH]ncc2n1 | nM | 1.8 |
| Cc1ncnc2ccc(-c3sc(NC(=O)N4CCC5(COCCN5)C4)nc3-c3cccc(C#N)c3)cc12 (stereo not drawn) | nM | 2.4 |
| Cc1nc(C)c(-c2sc(NC(=O)N3CCC(C)(C#N)CC3)nc2-c2cccc(C#N)c2)o1 | nM | 2.8 |
| Cc1ncnc2ccc(-c3sc(NC(=O)N4CCOC(C(C)(C)O)C4)nc3-c3cccc(C#N)c3)cc12 (racemic) | nM | 3.6 |
| Cc1ncnc2ccc(-c3sc(NC(=O)N4CCC(C)(C#N)C4)nc3-c3cccc(C#N)c3)cc12 (stereo not drawn) | nM | 1.1 |
| Cc1ncnc2ccc(-c3sc(NC(=O)N4CCO[C@H](C(C)(C)O)C4)nc3-c3cccc(C#N)c3)cc12 (single isomer, unassigned) | nM | 1.1 |
| Cc1cc(-c2sc(NC(=O)N3CC4(COC4)C3)nc2-c2cccc(C#N)c2)cc2cn[nH]c12 | nM | 2.9 |
| Cc1ncnc2ccc(-c3sc(NC(=O)N4CC5CCCN(C)C5C4)nc3-c3cccc(C#N)c3)cc12 (stereo not drawn) | nM | 5.4 |
| Cc1cc(-c2sc(NC(=O)N3CC4(COC4)C3)nc2-c2cccc(C#N)c2)cc2cnn(C)c12 | nM | 13.2 |
| Cc1cc(-c2sc(NC(=O)N3CC4(COC4)C3)nc2-c2cccc(C#N)c2)cnc1-n1nccn1 | nM | 136 |

###

# measurement target: human Adenosine A2a receptor (Homo sapiens (Human), UniProt P29274)
# Sequence (P29274 whole entry): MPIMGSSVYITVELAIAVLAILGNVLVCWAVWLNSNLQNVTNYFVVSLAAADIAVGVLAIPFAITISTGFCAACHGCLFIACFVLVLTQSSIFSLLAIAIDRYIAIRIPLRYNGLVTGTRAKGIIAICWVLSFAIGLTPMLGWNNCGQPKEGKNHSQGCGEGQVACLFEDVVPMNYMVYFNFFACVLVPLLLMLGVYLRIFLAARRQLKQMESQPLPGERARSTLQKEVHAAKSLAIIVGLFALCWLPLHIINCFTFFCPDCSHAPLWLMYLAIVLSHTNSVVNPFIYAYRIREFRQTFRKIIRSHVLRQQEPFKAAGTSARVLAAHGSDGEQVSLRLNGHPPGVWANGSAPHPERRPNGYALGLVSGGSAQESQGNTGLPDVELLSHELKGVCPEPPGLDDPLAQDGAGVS
# experiment: Adenosine receptor TR-FRET binding assay (A2a)
# assay conditions: inhibition of binding of 100 nM CA200645; CHO cell membranes; Ki from IC50 by Cheng and Prusoff
readout type: Ki (nM)

| molecular string | observed value |
| --- | --- |
| N#Cc1cccc(-c2nc(NC(=O)N3CC4(COC4)C3)sc2-c2ccc3ncncc3c2)c1 | 0.85 |
| Cc1ncnc2ccc(-c3sc(NC(=O)N4CCN(CC#N)CC4)nc3-c3cccc(C#N)c3)cc12 | 0.18 |
| Cc1ncnc2ccc(-c3sc(NC(=O)N4CCN(C(C)(C)C#N)CC4)nc3-c3cccc(C#N)c3)cc12 | 0.2 |
| Cc1cnc2ccc(-c3sc(NC(=O)N4CC5(COC5)C4)nc3-c3cccc(C#N)c3)cn12 | 0.15 |
